- Test system: A549
- EXPERIMENT_NOTES: NCI tumour cell line growth inhibition, 48 h
Calls of active or inactive are those of the source. No stated cut-off is given here; in the data, active = GI50 up to about 1.1 µM and inactive = higher.
Property: GI50; scope: individual compounds

COMPOUND | GI50
COC(=O)/C(=C/c1ccc(OC)cc1)NC(=O)c1ccccc1 | > 100 µM (inactive)
CC(C)/C=C1\CCC(CN(C)C)C1=O (centres undefined) | 8.57 µM (inactive)
C=CCN1/C(=C2\SC(=S)N(c3ccc(C)cc3)C2=O)Sc2c1nc[nH]c2=O | > 100 µM (inactive)
O=[N+]([O-])c1ccc2[nH]ncc2c1Cl | 45 µM (inactive)
CN1CCN(C(=S)N(C)C(=O)c2ccco2)CC1 | > 100 µM (inactive)
CSc1nc(NC2OC(COC(C)=O)C(OC(C)=O)C(OC(C)=O)C2OC(C)=O)c(-c2csc(N)n2)c(=O)n1C (centres undefined) | 43.4 µM (inactive)
Cc1ccc(O)c(-c2cscn2)c1 | 29.7 µM (inactive)
Cc1ccc2nc(-c3nccn3C)cc(C(=O)NC(C)CN(C)C)c2c1 (centres undefined) | 89.9 µM (inactive)
CN(C)C(=S)/N=c1\ss/c(=N\C(=S)N(C)C)n1-c1ccc(Cl)c(Cl)c1 | > 100 µM (inactive)
O=C(O)c1ccc(C(=O)c2ccccc2C(=O)O)cc1C(=O)O | > 100 µM (inactive)
N=C(N)NNC(=O)CCn1[nH]c(=O)c(Cl)c(Cl)c1=O | > 100 µM (inactive)
CC1(C)CC[C@]2(C(=O)O)CC[C@]3(C)C(=CC[C@@H]4[C@@]5(C)CC[C@H](OC6OC(CO)C(O)C(O)C6O)C(C)(C)[C@@H]5CC[C@]43C)[C@@H]2C1 (some centres undefined) | 1.68 µM (inactive)
O=C(O)Cn1c(=O)[nH]c(=O)c2c1ncn2Cc1ccccc1 | > 100 µM (inactive)
Brc1cccc(Nc2ncnc3sc4c(c23)CCC2(C4)OCCO2)c1 | 80 µM (inactive)
CCC(=C/[C@H](C)C/C=C/C(C)=C/[C@@H](C)C(=O)[C@@H](C)[C@H](O)[C@@H](C)CC)/C=C/[C@H]1CC=CC(=O)O1 | < 0.0012 µM (active)
COP(=O)(OC)C1=c2c(C)noc2=C2C=COC2C1=O (centres undefined) | > 100 µM (inactive)
ON(CCc1ccncc1)Cc1ccccc1 | > 100 µM (inactive)
S=c1sc2c(s1)SC(c1ccccc1)CS2 (centres undefined) | > 100 µM (inactive)
O=C(O)C1C2C=CC(O2)C1C(=O)NCc1cccnc1 (centres undefined) | > 100 µM (inactive)
CC(C)=Cc1cc(C)c2c(O)cc(C)c3c2c1C(C)=C(O)C3=O | 24.8 µM (inactive)
O=c1[nH]c(=O)n(C2CC(O)C(CO)O2)cc1C#Cc1ccc(F)cc1 (centres undefined) | > 100 µM (inactive)
COc1ccc(-c2cc(C3CC3)nc(SCC(=O)O)c2C#N)cc1 | 44 µM (inactive)
N#C/C(=C1\N=C(c2ccccc2O)Oc2ccccc21)c1ccc([N+](=O)[O-])cc1 | > 100 µM (inactive)
Cc1cccc2c1N(C(=O)/C=C\C(=O)O)C(c1c(C)[nH]c3ccccc13)C2 (centres undefined) | > 100 µM (inactive)
CN(C)C12C=CC=CC3=C(c4ccccc4)C(c4ccccc4)=C(c4ccccc4)C31c1ccccc1C2 (centres undefined) | > 100 µM (inactive)
CC(=O)Oc1ccc2cc(-c3ccccc3OC(C)=O)c(=O)oc2c1 | 32.1 µM (inactive)
CC(C)(C)c1ccc2c(c1)C(O)(c1ccccc1)c1cc(C(C)(C)C)ccc1C2(O)C(F)(F)F (centres undefined) | 1.88 µM (inactive)
O=C(O)C1CCCCC1c1c2ccc(=O)c(O)c-2oc2c(O)c(O)ccc12 (centres undefined) | 13 µM (inactive)
O=C1Nc2ccccc2N/C1=C\C(=O)C(F)F | > 100 µM (inactive)
COc1ccc2c(c1)CCc1c-2nc2cc3c(cc2c1O)OCO3 | > 100 µM (inactive)
O=C1/C(=C/c2ccc(O)c(CN3CCCCC3)c2)CCC/C1=C\c1ccc(O)c(CN2CCCCC2)c1 | 16.7 µM (inactive)
OC(CCNCc1ccccc1)c1ccc2ccccc2c1 (centres undefined) | 19 µM (inactive)
Oc1cccc2c(Br)ccnc12 | 4.34 µM (inactive)
COC(=O)CSc1nnc(-c2ccc(O)c([N+](=O)[O-])c2)[nH]1 | > 100 µM (inactive)
CCOC(=O)/C(=C\n1c(=O)sc2ccccc21)C(=O)c1ccccc1 | > 100 µM (inactive)
COc1cc(CCN)c(OC)c(OC)c1 | > 100 µM (inactive)
O=C(O)CCC(NC(=O)c1ccc(Oc2nc3ccccc3nc2C(=O)O)cc1)C(=O)O (centres undefined) | > 100 µM (inactive)
COc1ccc(OC)c(-c2cc(C(=O)O)c3cc4ccccc4cc3n2)c1 | > 100 µM (inactive)
CC1(C)COCN1COC1CCCCC1 | > 100 µM (inactive)
O=CC12C3CCC1C2C(=O)C3 (centres undefined) | > 100 µM (inactive)
COc1ccc(/N=C2\C(=N/c3ccc(OC)cc3)N(c3ccc(N(C)C)cc3)C(=S)N2c2ccc(OC)cc2)cc1 | > 100 µM (inactive)
O=C1CN(c2ccccc2)Cc2nc(Cl)ccc2N1 | > 100 µM (inactive)
COC(=O)CSc1ccccc1 | > 100 µM (inactive)
O=C1C=CC2(O)OCC3C=C4O[C@@H]5OC6(CCCCC6)O[C@@H]5C4[C@@H]2[C@@H]13 (some centres undefined) | > 100 µM (inactive)

The origin of these recorded values is ChEMBL document CHEMBL1201862.
